Molecular target: USP25 (UniProt Q9UHP3)
Sequence (whole entry): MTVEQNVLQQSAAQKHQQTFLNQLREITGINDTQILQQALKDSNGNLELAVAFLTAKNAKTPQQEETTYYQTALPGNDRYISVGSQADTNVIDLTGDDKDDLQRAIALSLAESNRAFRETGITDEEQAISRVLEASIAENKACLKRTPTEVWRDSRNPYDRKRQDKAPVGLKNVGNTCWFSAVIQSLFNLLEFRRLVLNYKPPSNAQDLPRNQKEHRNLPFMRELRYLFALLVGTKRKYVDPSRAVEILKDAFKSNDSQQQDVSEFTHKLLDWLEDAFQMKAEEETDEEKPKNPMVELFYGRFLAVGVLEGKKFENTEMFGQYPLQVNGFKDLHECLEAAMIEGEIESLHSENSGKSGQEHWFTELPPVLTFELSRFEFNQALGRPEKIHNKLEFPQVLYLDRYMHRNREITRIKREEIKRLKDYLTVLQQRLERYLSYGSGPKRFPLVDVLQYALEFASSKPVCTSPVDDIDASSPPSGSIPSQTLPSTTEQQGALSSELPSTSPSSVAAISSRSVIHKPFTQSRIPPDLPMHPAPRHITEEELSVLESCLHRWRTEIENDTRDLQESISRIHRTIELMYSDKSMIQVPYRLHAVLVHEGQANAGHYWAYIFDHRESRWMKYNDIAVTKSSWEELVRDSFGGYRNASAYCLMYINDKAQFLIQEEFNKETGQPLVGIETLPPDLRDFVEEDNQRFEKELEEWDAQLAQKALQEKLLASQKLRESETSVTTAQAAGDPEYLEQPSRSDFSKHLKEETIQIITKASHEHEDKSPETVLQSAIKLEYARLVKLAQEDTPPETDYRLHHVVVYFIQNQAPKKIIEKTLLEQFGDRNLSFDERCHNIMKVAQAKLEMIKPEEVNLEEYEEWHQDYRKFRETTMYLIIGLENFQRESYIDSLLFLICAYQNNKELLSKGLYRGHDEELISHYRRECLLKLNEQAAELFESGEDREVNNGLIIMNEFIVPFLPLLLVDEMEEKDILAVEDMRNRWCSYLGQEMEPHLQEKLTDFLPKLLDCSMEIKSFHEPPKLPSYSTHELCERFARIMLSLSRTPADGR
Assay: log2 ratio of Biotin-Ahx-Ub-VS probe labelling (fragment/DMSO); higher = less target engagement (more negative = stronger competition), active = hit call of the paper (q ≤ 0.05, log2 ratio ≤ -1)
Conditions: compound concentration: 200 uM; treatment time: 3 h
Possible outcomes: active, inactive

>>> df
                              test_smiles     group
0         CN1C(=O)c2ccc(NC(=O)CCl)cc2C1=O    active
1      Cl.O=C(CCl)N1CCC(n2nc3ccccc3n2)CC1  inactive
2  Cc1ccc(C)c(Oc2ccc(CNC(=O)CCl)cn2)c1.Cl  inactive
3                O=C(CCl)N1CCOC2(CCC2)CC1  inactive

---

target: USP54 (UniProt Q70EL1); assay: log2 ratio of Biotin-Ahx-Ub-VS probe labelling (fragment/DMSO); higher = less target engagement (more negative = stronger competition), active = hit call of the paper (q ≤ 0.05, log2 ratio ≤ -1); conditions: compound concentration: 200 uM; treatment time: 3 h
Sequence (Q70EL1 whole entry, the tested form may be a part): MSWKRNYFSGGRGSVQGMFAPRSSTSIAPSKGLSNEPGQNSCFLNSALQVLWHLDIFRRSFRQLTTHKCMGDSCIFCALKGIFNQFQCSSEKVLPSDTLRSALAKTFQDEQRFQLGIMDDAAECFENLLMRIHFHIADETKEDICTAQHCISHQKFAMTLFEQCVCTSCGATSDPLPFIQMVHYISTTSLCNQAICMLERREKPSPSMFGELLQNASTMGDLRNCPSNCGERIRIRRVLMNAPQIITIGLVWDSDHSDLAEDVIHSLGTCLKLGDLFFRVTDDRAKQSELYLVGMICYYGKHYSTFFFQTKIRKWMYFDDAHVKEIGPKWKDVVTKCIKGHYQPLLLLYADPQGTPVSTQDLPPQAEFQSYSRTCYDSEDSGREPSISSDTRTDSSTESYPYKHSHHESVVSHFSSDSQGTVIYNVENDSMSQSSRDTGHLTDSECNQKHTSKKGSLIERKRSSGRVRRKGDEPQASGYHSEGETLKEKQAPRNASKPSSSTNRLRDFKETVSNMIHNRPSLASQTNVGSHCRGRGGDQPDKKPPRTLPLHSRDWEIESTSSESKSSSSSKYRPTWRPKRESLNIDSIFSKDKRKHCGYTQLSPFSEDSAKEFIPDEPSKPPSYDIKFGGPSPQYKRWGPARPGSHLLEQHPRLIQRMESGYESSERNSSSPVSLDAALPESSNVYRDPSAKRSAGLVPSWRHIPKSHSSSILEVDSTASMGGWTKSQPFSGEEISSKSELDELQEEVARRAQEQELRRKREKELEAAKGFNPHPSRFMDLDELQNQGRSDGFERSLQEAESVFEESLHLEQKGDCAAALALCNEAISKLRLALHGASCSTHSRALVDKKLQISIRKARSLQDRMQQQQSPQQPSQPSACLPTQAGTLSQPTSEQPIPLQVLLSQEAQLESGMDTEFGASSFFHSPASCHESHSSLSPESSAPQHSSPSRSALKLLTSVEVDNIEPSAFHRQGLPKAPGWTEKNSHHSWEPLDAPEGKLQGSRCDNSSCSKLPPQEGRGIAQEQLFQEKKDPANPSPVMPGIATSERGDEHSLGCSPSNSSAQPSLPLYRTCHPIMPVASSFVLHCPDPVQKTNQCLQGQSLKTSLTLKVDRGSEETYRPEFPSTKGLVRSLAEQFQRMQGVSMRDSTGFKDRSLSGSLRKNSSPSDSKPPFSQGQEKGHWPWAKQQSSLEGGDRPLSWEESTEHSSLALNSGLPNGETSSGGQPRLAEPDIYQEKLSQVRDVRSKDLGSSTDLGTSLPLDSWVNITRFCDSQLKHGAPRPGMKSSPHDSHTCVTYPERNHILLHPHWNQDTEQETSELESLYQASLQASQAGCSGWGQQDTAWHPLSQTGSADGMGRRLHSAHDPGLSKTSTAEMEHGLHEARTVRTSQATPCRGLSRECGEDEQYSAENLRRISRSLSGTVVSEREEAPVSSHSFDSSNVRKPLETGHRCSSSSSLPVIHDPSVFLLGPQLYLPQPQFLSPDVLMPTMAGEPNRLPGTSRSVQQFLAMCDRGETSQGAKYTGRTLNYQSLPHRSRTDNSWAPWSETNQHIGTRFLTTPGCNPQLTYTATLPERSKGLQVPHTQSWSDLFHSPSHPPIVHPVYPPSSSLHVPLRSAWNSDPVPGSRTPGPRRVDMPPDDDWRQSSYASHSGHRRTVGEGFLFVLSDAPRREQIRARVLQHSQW
Returns 1 if the recorded log2 ratio of Biotin-Ahx-Ub-VS probe labelling is greater than or equal to 0.3, and -1 otherwise.

In [3]: df
Out[3]:
                                    compound  group
 0            Cc1nc(-c2cccc(NC(=O)CCl)c2)cs1     -1
 1                O=C(CCl)Nc1nc(-c2cccs2)cs1     -1
 2  O=C(O)C1Cc2ccccc2CN1C(=O)CCl (centres undefined)      1
 3           Cl.O=C(CCl)N1CC(c2ccc(Br)cn2)C1      1
 4        O=C(CCl)N1CCC(c2noc3cc(F)ccc23)CC1      1
 5  Cc1cc(CC(C)NC(=O)CCl)n[nH]1 (centres undefined)     -1
 6                 COc1ccc(CN(C)C(=O)CCl)cc1     -1
 7                 O=C(CCl)N(C1=CCCCC1)C1CC1      1
 8  O=C(CCl)NC1CCCCNC1=O (centres undefined)     -1
 9                     CC(C)n1nccc1NC(=O)CCl      1
10        Cc1cc(C(=O)NC2CCN(C(=O)CCl)CC2)no1     -1
11               Cl.O=C(CCl)NCCN1CCc2ccccc21     -1
12          CN(Cc1nc2ccccc2[nH]1)C(=O)CCl.Cl     -1
13            Cc1cccn2cc(CCNC(=O)CCl)nc12.Cl     -1
14           C[C@@H](NC(=O)CCl)c1cccc(C#N)c1     -1
15  O=C(CCl)NC1CCOc2ccccc21 (centres undefined)      1
16  Cl.Cn1ncc2c1CCCC2NC(=O)CCl (centres undefined)      1
17       Cc1c(C#N)c(NC(=O)CCl)n(Cc2ccco2)c1C     -1
18                   N#Cc1ccc(CNC(=O)CCl)cc1      1
19           O=C(CCl)N1CCC(c2nc3ccccc3o2)CC1      1
20                  O=C(CCl)NCc1noc(C2CC2)n1      1
21                   COc1ccc(Cl)cc1NC(=O)CCl     -1
22        Cc1ccccc1OCC(=O)N1CCN(C(=O)CCl)CC1     -1
23               O=C(CCl)Nc1cc(Cl)ccc1C(=O)O     -1
24  O=C(CCl)N(C1CCCC1)C1CCS(=O)(=O)C1 (centres undefined)     -1
25              Cl.O=C(CCl)NC1(c2ncccn2)CCC1     -1
26  NC(=O)C1CCCCN1C(=O)CCl (centres undefined)      1
27                  Cc1conc1C1CN(C(=O)CCl)C1      1
28                CNC(=O)C1(NC(=O)CCl)CCCCC1      1
